assay: NCI Yeast Anticancer Drug Screen. Data for the mlh1 rad18 strain (AID 175); conditions: S. cerevisiae mlh1 rad18 strain growth inhibition; at 50.0 µM (retest, dose inferred, filed as 5.0)
About 79,000 compounds went through this panel and 15% of them were active in at least one assay; those are over-represented in the sample as a whole. Calls of active or inactive are those of the source. No stated cut-off is given here; in the data, active means growth inhibition above about 70%; inactive means the rest.
Your reply should match one of these outcome classes. true (1) for active, false (0) for inactive

Example cases with answers are listed next.
compound="CCC[CH2][Sn]1([CH2]CCC)[O]CC(CN(C)Cc2ccccc2)[O]1 (stereo not drawn)" assigned_label="false (0)"
compound=CC(=O)[O][Hg][c]1cc2c(cc1O)Cc1cc([N+](=O)[O-])ccc1-2 assigned_label="true (1)"
compound=CS/C([S-])=N/N=C/c1ccccn1.[Cl][Pt+] assigned_label="true (1)"
compound="CC(O[Si](c1ccccc1)(c1ccccc1)C(C)(C)C)[C@H](NC(=O)OC(C)(C)C)C(=O)O (stereo partly drawn)" assigned_label="false (0)"
compound=c1c(N2CCOCC2)ssc1=[N+]1CCOCC1 assigned_label="false (0)"
compound=O=[N+]([O-])c1cc2c([N+](=O)[O-])cccc2o1 assigned_label="true (1)"
compound="C[C@@H]1CCC2[C@@H](C)[C@H](O[C@H]3O[C@@H]4O[C@@]5(C)CCC6[C@H](C)CCC([C@H]3C)[C@]64OO5)O[C@@H]3O[C@@]4(C)CCC1[C@@]23OO4 (stereo partly drawn)" assigned_label="true (1)"
compound=[O-][n+]1onc2ccccc21 assigned_label="true (1)"
compound="CC(=O)OC1CCC2(C)C3CCC4(C)C(OC(=O)c5ccccc5)CCC4C3CC(Br)C2(O)C1 (stereo not drawn)" assigned_label="false (0)"
compound="CNC(Cc1ccccc1)c1ccc(OC)c(OC)c1 (stereo not drawn)" assigned_label="true (1)"

Can you look up the reported call for `O=C1N[C@@H]2C(=C[C@H](O)[C@@H](O)[C@H]2O)c2cc3c(c(O)c21)OCO3` for me?
true (1)
